Assay: physchem
Details: aqueous with cosolvent or surfactant or cyclodextrin, thermodynamic from solid, solubility (48 hrs), calculated as freebase

{"columns": ["COMPOUND", "solubility at 48 h"],
 "data": [
  ["O=C(NCC1CCCCN1)c1cc(OCC(F)(F)F)ccc1OCC(F)(F)F (stereo not shown) [flecainide acetate]", "105 mg/mL"]
]}

---

Assay: Solubility of flecainide in D/L-lactic acid media
Type: physicochemical
Settings: pure water with L-lactic acid, aqueous buffer, thermodynamic from solid; no excipient (pure water), L-lactic acid, 24 h, pH 5.6

{"columns": ["COMPOUND", "solubility at 24 h (mg/mL)"],
 "data": [
  ["O=C(NCC1CCCCN1)c1cc(OCC(F)(F)F)ccc1OCC(F)(F)F (stereo not shown) [flecainide]", 96.6]
]}
